# Test system: UACC-62 melanoma
# protocolDetails: NCI tumour cell line growth inhibition, 48 h
observable: TGI

Entry under test: O=c1c(O)c(-c2cc(O)c(O)cc2O)oc2cc(O)c(C3OC(CO)C(O)C(O)C3O)c(O)c12 (stereo not given) . Its TGI was > 100 µM

The reported TGI of the compound "Cc1ccc(S(=O)(=O)/N=C(\[O-])C2=C(c3ccccc3)NN(C)c3nc4cccc[n+]4nc32)cc1" was > 100 µM

TGI for "CCOC(=O)C1(C(=O)OCC)CC(=O)[C@@]2(C1)OCC[C@H]1OC(=O)C[C@H]12" is > 100 µM

// sample CCC(O)(c1ccc(OC)cc1)C(c1ccc(OCc2ccccc2)cc1)c1ccc(OCc2ccccc2)cc1 (stereo not given) , its TGI was > 100 µM

Notebook: "CCOC(=O)C#Cc1ccc([N+](=O)[O-])cc1" , TGI read as 4.05 µM

====

# Test system: HCC-2998 colon
# protocolDetails: NCI tumour cell line growth inhibition, 48 h
Please provide measured TGI for the entries that follow.

# compound "S=P(c1ccccc1)(c1ccccc1)C1(C2(P(=S)(c3ccccc3)c3ccccc3)CC2)CC1" ; its TGI = > 100 µM

Lab note: "CC1(C)N=C(/C=N/O)C(C)(C)N1O" gave TGI of > 100 µM

TGI measured on "NCCCc1c(-c2ccccc2)nc(N)[nH]c1=O" = > 100 µM

Value of TGI reported for the compound "CCOC(=O)C#Cc1ccc([N+](=O)[O-])cc1" is 28.7 µM

Lab note: measured TGI of "C[C@@H](Oc1cc(NS(=O)(=O)N2CCC2)nc(SCc2cccc(F)c2F)n1)[C@@H](O)CO" was > 100 µM

Record summary for "O=C(NC1CCN(Cc2ccccc2)CC1)c1cc(C(=O)NC2CCN(Cc3ccccc3)CC2)cc(C(=O)NC2CCN(Cc3ccccc3)CC2)c1" : reported TGI = 16.6 µM

// TGI lookup, compound = COc1cc(C2SCC(=O)N2c2ccc(Cl)cc2)cc(I)c1O (stereo not drawn) , result: > 100 µM

Reported TGI for CC1OC(O[C@H]2/C=C/C=C/C=C/C=C/C=C/C=C/C=C/[C@H](C)[C@@H](O)[C@@H](C)[C@H](C)OC(=O)C[C@H](O)C[C@H](O)CC[C@@H](O)[C@H](O)C[C@H](O)C[C@]3(O)C[C@H](O)[C@@H](C(=O)O)[C@H](C2)O3)C(O)C(N)C1O (stereo partly drawn) was 61.2 µM

====

# Test system: HL-60(TB) leukemia
# protocolDetails: NCI tumour cell line growth inhibition, 48 h
observable: TGI (µM)
Give a bare numeral; the unit µM is implied.

Observed TGI on HL-60(TB) leukemia, entry "Nc1nc(N)c2nc(-c3ccco3)cnc2n1" , equals 89.6

Record for "COC(=O)c1ccc(CCc2cc(O)c(Br)cc2O)cc1" under target or system HL-60(TB) leukemia: TGI reported as 4.65

Entry N#Cc1nn(C2OC(COC(=O)c3ccccc3)C(OC(=O)c3ccccc3)C2OC(=O)c2ccccc2)c2nc[nH]c(=O)c12 (centres undefined) under HL-60(TB) leukemia had TGI of 83.4

TGI for HL-60(TB) leukemia with input "N=c1oc2ccc(Cl)cc2cc1C(=O)NCc1ccccc1" equals 36.8

Note to self: TGI of "CC(=O)O[C@H]1C(=O)[C@@]2(C)[C@H]([C@H](OC(=O)c3ccccc3)[C@]3(O)C[C@H](OC(=O)[C@H](O)[C@@H](NC(=O)CC(C)C)c4ccccc4)C(C)=C1C3(C)C)[C@]1(OC(C)=O)CO[C@@H]1C[C@@H]2O" with HL-60(TB) leukemia was 0.00899

Short answer on HL-60(TB) leukemia for "CC1=C2C(=O)C(C)(C)C=C2C(=O)[C@](C)(O)C12CC2" , TGI: 0.66

====

# Tested on: DU-145 prostate
# protocolDetails: NCI tumour cell line growth inhibition, 48 h
observable: GI50

Reported GI50 for "COc1cc([C@@H]2c3cc4c(cc3[C@H](OC(C)=O)[C@H]3COC(=O)[C@H]23)OCO4)cc(OC)c1OC" was 41.2 nM

GI50 measured on N#C/C(=C/C=C/c1ccccc1)S(=O)c1ccccc1 (stereo not given) = 316 nM

Reported GI50 ( "N/C(=N\c1nc2ccccc2s1)NC(=O)Nc1ccccc1Cl" ) = 259 nM

Recorded result, "Cc1cccc2c1O/C(=C\c1ncc([N+](=O)[O-])n1C)C2=O" , GI50: 238 nM

So, "NC(=O)c1cc(Cl)ccc1NC(=O)c1ccccc1-c1ccccc1" ? Its GI50 was 597 nM

Recorded result, "COc1cc(C)[nH]c(=O)c1CN1CCc2c(Cl)cc([C@H](OC)C3COC3)c(Cl)c2C1=O" , GI50: > 100000 nM

GET /value?item= "O=C1/C(=C/c2ccccc2Br)COc2ccc(O)c(O)c21" &field=GI50 returns 1490 nM

Value of GI50 reported for the compound COC(=O)c1cc2c3c(cc(O)c2[nH]1)N(C(=O)C1Cc2cc(OC)c(OC)c(OC)c2N1)CC3CCl (stereo not given) is < 10 nM

So for "C=C1SC(=Nc2ccccc2Cl)N(C(=O)c2sc3ccccc3c2Cl)C1(C)C" , the logged GI50 turned out to be 11300 nM

// recorded GI50 for "O=C1/C(=C/c2ccccc2)CN(CCC(=O)N2C/C(=C\c3ccccc3)C(=O)/C(=C/c3ccccc3)C2)C/C1=C\c1ccccc1" : 21100 nM

Looking up "O=C1C(Cl)=C(Nc2cccc(O)c2)C(=O)N1c1cccc(Cl)c1" , I see its GI50 listed as 69500 nM

Value of GI50 reported for the compound "COc1ccccc1N1CCN(C(=O)c2ccc(NS(=O)(=O)c3cccc4cccnc34)cc2)CC1" is > 100000 nM

Sample "O=c1ccccc(-c2ccc(-c3ccco3)cc2)c1O" ; GI50 observed: 967 nM

The recorded GI50 for entry "COc1ccc(Cl)cc1NC(=O)c1c(NC(=O)C(F)(F)C(F)(F)F)sc2c1CCCCC2" equals 2720 nM

Per the record, "COc1cc2c(=O)n(CCCn3ccnc3)c3c4cc5c(cc4ccc3c2cc1OC)OCO5" has GI50 of 510 nM

====

# Test system: M14 melanoma
# protocolDetails: NCI tumour cell line growth inhibition, 48 h
Where a SMILES comes first, the peptide text is derived from it. [ ]: non-standard residue; d: D form. The star is where a group is joined. ξ: configuration not given here. Propanoyl(3-(4-MeO-Ph)) = COc1ccc(CCC(=O)*)cc1; Thr(3ξ) = CC(O)[C@H](N)C(=O)O; dNMeL = CN[C@H](CC(C)C)C(=O)O; OBn = c1ccc(CO*)cc1; ξLac = CC(O)C(=O)O
observable: TGI

Please fill in: TGI reported for O=C1CC2C(=O)C1C(C(=O)O)C2C(=O)O (centres undefined) = > 100 µM

Lab note: "C=C1SC(=Nc2ccccc2Cl)N(C(=O)c2sc3ccccc3c2Cl)C1(C)C" gave TGI of > 69.9 µM

Record summary for "CN(C)Cc1cccc(CN(C)C)[c]1[Sn]([Br])([c]1ccccc1)[c]1ccccc1" : reported TGI = 30.6 µM

Item: CC1(C)C(=O)C2(OS(=O)(=O)C(F)(F)F)CCC1C2 (centres undefined) | TGI: > 100 µM

"N#Cc1ccc(-c2nc3ccc(Cl)cc3[nH]2)cc1" has a reported TGI of > 100 µM

Value of TGI reported for the compound "O=C(N/N=C\c1ccc([N+](=O)[O-])cc1)Nc1cccc2ccccc12" is > 100 µM

Lab book: TGI of COc1ccc(CCC(=O)OC(C)[C@H](NC(=O)[C@@H](CC(C)C)N(C)C(=O)[C@@H]2CCCN2C(=O)C(C)O)C(=O)OCc2ccccc2)cc1 (some centres undefined) (H-[ξLac]P[dNMeL][Thr(3ξ)](Propanoyl(3-(4-MeO-Ph)))-OBn) noted as 30.6 µM

The reported value for "COC(=O)c1ccc(CCc2cc(O)c(Br)cc2O)cc1" in terms of TGI is 29 µM

response.value for COc1ccc2c(c1)CCCN1CCc3cc(OC)c(OC)cc3C21 (centres undefined) (field: TGI) = > 100 µM

====

# Test system: MALME-3M melanoma
# protocolDetails: NCI tumour cell line growth inhibition, 48 h
Can you tell me TGI for the items I'm about to list?

Result for CC1OC(O[C@H]2/C=C/C=C/C=C/C=C/C=C/C=C/C=C/[C@H](C)[C@@H](O)[C@@H](C)[C@H](C)OC(=O)C[C@H](O)C[C@H](O)CC[C@@H](O)[C@H](O)C[C@H](O)C[C@]3(O)C[C@H](O)[C@@H](C(=O)O)[C@H](C2)O3)C(O)C(N)C1O (stereo partly specified) , tested on MALME-3M melanoma, TGI: 15.3 µM

Per the reported MALME-3M melanoma data, COc1ccc(-c2nc(N)c3ncn(C4OC(CO)C(O)C4O)c3n2)cc1 (stereo unspecified) has TGI of > 100 µM

Form field TGI for item CC(Oc1ccc(OCC2CCCCC2)cc1)C(=O)O (stereo unspecified) on MALME-3M melanoma: > 100 µM

Log: MALME-3M melanoma, molecule "Clc1ccc2c(NCCNc3ccnc4cc(Cl)ccc34)ccnc2c1" , TGI = > 100 µM

Per the reported MALME-3M melanoma data, "CC(C)(C)N1CC(OC(N)=O)C1" has TGI of > 100 µM

Param item: Cc1[nH]c2ccccc2c1C1CC(=O)NC1=O (stereo unspecified) ; param system: MALME-3M melanoma; output TGI: > 100 µM

Sample CC(=O)O[C@H]1CCC2[C@@H]3CCC4Nc5c(cnn5-c5ccccc5)C[C@]4(C)C3CC[C@@]21C (stereo partly specified) , system: MALME-3M melanoma. Its TGI is 35.1 µM

MALME-3M melanoma data for "C=Cc1cc2c(cc1O)CC[C@@H]1[C@@H]2CC[C@]2(C)[C@@H](O)CC[C@@H]12" ; its TGI: 10.4 µM

Test item CC(NC(=O)C(N)CC(=O)O)NC(=O)N1CCOCC1 (stereo unspecified) ; MALME-3M melanoma; reported TGI was > 100 µM

# "Cc1ccc(/C=N/NC2=NCCN2)s1" with MALME-3M melanoma: TGI is > 100 µM

Note to self: TGI of "COc1ccccc1N1CCN(C(=O)c2ccc(NS(=O)(=O)c3cccc4cccnc34)cc2)CC1" with MALME-3M melanoma was > 100 µM
